Where do the numbers come from? From PubChem BioAssay AID2060619.

System: 323965-272-R-J2-PDC complex spheroid viability;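 also: spheroids exposed to agents for seven days before readout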
Assay: Anticancer human tumor 323965-272-R-J2-PDC patient-derived pancreatic carcinoma cell line growth inhibition [CLK]; active = viability on the fitted dose curve at most 10% of control; inactive = the rest
Details: second compound 3.16 µM; first compound 0.1 µM
Labels: active, inactive

compound | category
CC1(C)CCC(CN2CCN(c3ccc(C(=O)NS(=O)(=O)c4ccc(NCC5CCOCC5)c([N+](=O)[O-])c4)c(Oc4cnc5[nH]ccc5c4)c3)CC2)=C(c2ccc(Cl)cc2)C1 + CNC(=O)c1ccc(Nc2nc(OC3CCCC3)c3c(-c4ccc5nc(C)oc5c4)c[nH]c3n2)c(OC)c1 | inactive
COc1ccc([C@@H](O)c2cc(-c3ncnc4cc(N5CCOCC5)ccc34)c(F)cc2Cl)nn1 + CN1CCN(c2cc(C(=O)Nc3cc4cc(-c5cnn(C)c5)ccc4cn3)ccn2)CC1 | active
C=CC(=O)N1CCN(c2nc(=O)n(-c3c(C)ccnc3C(C)C)c3nc(-c4c(O)cccc4F)c(F)cc23)C(C)C1 (stereo not given) + CNC(=O)c1ccc(Nc2nc(OC3CCCC3)c3c(-c4ccc5nc(C)oc5c4)c[nH]c3n2)c(OC)c1 | inactive
Nc1ccn(C2OC(CO)C(O)C2(F)F)c(=O)n1 (stereo not given) + CN1CCN(c2cc(C(=O)Nc3cc4cc(-c5cnn(C)c5)ccc4cn3)ccn2)CC1 | active
CC(Nc1ccc2c(c1)OCCn1cc(N3C(=O)OCC3C(F)F)nc1-2)C(N)=O (stereo not given) + CNC(=O)c1ccc(Nc2nc(OC3CCCC3)c3c(-c4ccc5nc(C)oc5c4)c[nH]c3n2)c(OC)c1 | inactive
COc1ccc([C@@H](O)c2cc(-c3ncnc4cc(N5CCOCC5)ccc34)c(F)cc2Cl)nn1 + CNC(=O)c1ccc(Nc2nc(OC3CCCC3)c3c(-c4ccc5nc(C)oc5c4)c[nH]c3n2)c(OC)c1 | inactive
CC(CO)NC(=O)c1cc(-c2ccc(Cl)cc2)nn(-c2cnn(C)c2)c1=O (stereo not given) + CNC(=O)c1ccc(Nc2nc(OC3CCCC3)c3c(-c4ccc5nc(C)oc5c4)c[nH]c3n2)c(OC)c1 | inactive
CC(CO)NC(=O)c1cc(-c2ccc(Cl)cc2)nn(-c2cnn(C)c2)c1=O (stereo not given) + CN1CCN(c2cc(C(=O)Nc3cc4cc(-c5cnn(C)c5)ccc4cn3)ccn2)CC1 | active
CC1(C)CCC(CN2CCN(c3ccc(C(=O)NS(=O)(=O)c4ccc(NCC5CCOCC5)c([N+](=O)[O-])c4)c(Oc4cnc5[nH]ccc5c4)c3)CC2)=C(c2ccc(Cl)cc2)C1 + CN1CCN(c2cc(C(=O)Nc3cc4cc(-c5cnn(C)c5)ccc4cn3)ccn2)CC1 | active
Nc1ccccc1NC(=O)c1ccc(CNC(=O)OCc2cccnc2)cc1 + CN1CCN(c2cc(C(=O)Nc3cc4cc(-c5cnn(C)c5)ccc4cn3)ccn2)CC1 | active
